Reference for the values: patent US10005739B2

- Measured On: DDR1 (Homo sapiens (Human))
- Sequence (Q08345 19-913): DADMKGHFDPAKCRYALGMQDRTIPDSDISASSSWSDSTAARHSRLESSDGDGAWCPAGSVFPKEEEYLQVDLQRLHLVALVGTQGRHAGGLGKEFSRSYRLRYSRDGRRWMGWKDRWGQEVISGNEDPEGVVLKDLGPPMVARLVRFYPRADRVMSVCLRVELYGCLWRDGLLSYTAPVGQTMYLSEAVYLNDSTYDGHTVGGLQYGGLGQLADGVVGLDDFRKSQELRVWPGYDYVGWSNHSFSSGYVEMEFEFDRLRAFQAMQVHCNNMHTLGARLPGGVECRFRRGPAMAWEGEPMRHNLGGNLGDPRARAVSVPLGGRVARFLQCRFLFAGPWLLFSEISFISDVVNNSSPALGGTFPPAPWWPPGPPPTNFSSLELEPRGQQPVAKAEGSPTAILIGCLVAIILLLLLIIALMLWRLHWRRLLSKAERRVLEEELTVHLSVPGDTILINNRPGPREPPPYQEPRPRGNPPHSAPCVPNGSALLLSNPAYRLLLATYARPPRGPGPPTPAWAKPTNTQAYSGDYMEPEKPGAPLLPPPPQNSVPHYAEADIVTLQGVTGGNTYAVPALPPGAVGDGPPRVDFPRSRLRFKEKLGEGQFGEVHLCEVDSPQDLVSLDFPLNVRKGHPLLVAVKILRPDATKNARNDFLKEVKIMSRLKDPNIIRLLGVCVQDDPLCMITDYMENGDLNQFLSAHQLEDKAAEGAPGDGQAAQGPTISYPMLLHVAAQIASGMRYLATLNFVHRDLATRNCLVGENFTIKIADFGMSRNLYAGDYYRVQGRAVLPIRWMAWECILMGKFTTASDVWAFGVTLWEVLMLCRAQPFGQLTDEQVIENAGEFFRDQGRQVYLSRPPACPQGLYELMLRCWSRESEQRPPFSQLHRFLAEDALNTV
- Assay Details: Measurement of DDR1 enzyme inhibitory activity (phosphorylation of biotinylated peptide, time-resolved fluorescence)
- Format: biochemical
- Assay Setup: human DDR1 enzyme, biotinylated peptide phosphorylation; read-out: DDR1 enzyme inhibition assay IC50
pIC50: −log10 of the molar value.
Observed Property: pIC50

Compound: CCSc1ccc(Cl)cc1Cn1cnc2c(Br)cc(C(F)(F)F)cc2c1=O
Observed: 6.23
//
Compound: CCS(=O)(=O)c1ccc(Cl)cc1Nn1cnc2ccc(C(F)(F)F)cc2c1=O
Observed: 6.92
//
Compound: CCS(=O)(=O)c1ccc(Cl)cc1Cn1ccc2ccc(OC)cc2c1=O
Observed: 6.31
//
Compound: CCSc1ccc(Cl)cc1Cn1cnc2c(Br)cc(C)cc2c1=O
Observed: 6.19
//
Compound: CCS(=O)(=O)c1cc(Cl)c(Cl)cc1Nn1cnc2ccc(C(F)(F)F)cc2c1=O
Observed: 6.96

A. CCS(=O)(=O)c1ccc(Cl)cc1Nn1cnc2cnc(F)cc2c1=O
B. CCSc1ccc(Cl)cc1Nn1cnc2ccc(OC(F)(F)F)cc2c1=O
C. Cc1cc(Br)c2ncn(Nc3cc(Cl)ccc3[S+]([O-])c3ccccc3)c(=O)c2c1 (centres unmarked)
Problem: List items by pIC50 in falling order. Answer by listing the labels in the requested order.
Result: B, C, A
(B: 6.54, C: 6.13, A: 5.12)
